assayed system: ATP-binding cassette sub-family C member 3 (Rattus norvegicus, UniProt O88563)
Sequence (O88563 whole entry): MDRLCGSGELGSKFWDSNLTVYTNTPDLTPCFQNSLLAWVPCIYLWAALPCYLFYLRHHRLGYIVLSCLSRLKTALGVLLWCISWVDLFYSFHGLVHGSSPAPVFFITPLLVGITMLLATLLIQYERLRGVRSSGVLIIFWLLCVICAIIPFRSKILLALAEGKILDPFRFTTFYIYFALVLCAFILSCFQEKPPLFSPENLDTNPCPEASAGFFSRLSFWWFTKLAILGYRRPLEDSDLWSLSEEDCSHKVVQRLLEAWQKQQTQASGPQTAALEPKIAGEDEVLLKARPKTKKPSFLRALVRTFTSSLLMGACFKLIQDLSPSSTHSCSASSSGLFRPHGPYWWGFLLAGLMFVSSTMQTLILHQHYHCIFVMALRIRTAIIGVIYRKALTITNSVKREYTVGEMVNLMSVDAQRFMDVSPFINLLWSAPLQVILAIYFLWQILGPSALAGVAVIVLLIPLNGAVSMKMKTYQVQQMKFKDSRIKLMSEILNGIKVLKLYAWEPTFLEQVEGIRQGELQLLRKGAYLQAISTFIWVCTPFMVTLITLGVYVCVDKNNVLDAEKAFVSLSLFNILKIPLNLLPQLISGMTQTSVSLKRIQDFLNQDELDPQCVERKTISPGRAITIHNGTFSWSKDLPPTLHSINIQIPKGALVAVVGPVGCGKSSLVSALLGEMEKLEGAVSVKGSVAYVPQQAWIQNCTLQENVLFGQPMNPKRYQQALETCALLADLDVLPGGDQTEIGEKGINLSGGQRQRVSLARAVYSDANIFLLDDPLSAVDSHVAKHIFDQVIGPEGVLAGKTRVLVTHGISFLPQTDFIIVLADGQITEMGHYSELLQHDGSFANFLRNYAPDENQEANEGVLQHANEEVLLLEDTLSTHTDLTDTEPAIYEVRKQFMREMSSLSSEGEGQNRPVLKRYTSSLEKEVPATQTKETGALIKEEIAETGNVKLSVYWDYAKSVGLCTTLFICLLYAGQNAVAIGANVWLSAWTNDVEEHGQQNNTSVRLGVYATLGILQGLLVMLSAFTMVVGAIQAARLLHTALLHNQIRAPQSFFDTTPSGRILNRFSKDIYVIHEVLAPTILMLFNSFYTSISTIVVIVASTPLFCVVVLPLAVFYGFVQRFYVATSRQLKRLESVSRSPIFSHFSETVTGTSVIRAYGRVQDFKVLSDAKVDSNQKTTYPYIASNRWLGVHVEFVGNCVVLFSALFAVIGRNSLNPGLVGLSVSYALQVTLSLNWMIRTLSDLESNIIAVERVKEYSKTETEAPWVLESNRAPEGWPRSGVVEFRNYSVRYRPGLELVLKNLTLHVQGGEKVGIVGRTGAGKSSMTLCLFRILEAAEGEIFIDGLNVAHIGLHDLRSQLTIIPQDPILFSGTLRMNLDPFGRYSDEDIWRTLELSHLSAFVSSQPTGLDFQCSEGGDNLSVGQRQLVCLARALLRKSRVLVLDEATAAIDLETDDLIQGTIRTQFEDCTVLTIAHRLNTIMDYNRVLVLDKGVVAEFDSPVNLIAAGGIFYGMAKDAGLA
assay overview: TP_TRANSPORTER: quantitative PCR in vivo, liver of SD rat
Type: functional, organism-based, Sprague-Dawley

| compound | Activity |
| --- | --- |
| c1ccc([C@H]2O[C@@H]2c2ccccc2)cc1 (relative stereo) | inducer [] |
| CCC1(c2ccccc2)C(=O)NC(=O)NC1=O | inducer [] |
| Cc1c(-c2cnccn2)ssc1=S | inducer [] |
| C=CCSCC=C [DIALLYL SULFIDE] | inducer [] |
